# targetDesc: HDAC6 enzyme (Homo sapiens, UniProt Q9UBN7)
# Construct: transducing full length HDAC6 gene into Sf-9 insect cells; GST; purchased SignalChem; host or cells: Sf-9 insect cells
# testName: HDAC6 enzyme inhibitory activity (HDAC-Glo I/II Assay kit)
# Type: biochemical
# runConditions: 10 μM; wells without enzyme = 100% inhibition; read-out: HDAC6 inhibitory rate (%) (10 μM)
propertyName: inhibition at 10 µM (%)
Answer in %, number only, no unit symbol.

Check out these entries, answers already filled in.
| compound | scaleUnit | recordedResult |
| --- | --- | --- |
| CCc1ncccc1-c1ccccc1N1Cc2ccc(-c3nnc(C(F)F)o3)cc2C1=O [Example 280] | % | 99 |
| O=C1c2cc(-c3nnc(C(F)F)o3)ccc2CN1[C@@H]1CCCC[C@H]1NC(=O)C1(c2ccccc2)CC1 [Example 87] | % | 99 |
| CCOC(=O)N[C@@H]1CCCC[C@H]1N1Cc2ccc(-c3nnc(C(F)F)o3)cc2C1=O [Example 52] | % | 96 |
| O=C1c2cc(-c3nnc(C(F)F)o3)cnc2CN1Cc1cc(F)cc(F)c1 [Example 353] | % | 98 |
| N#Cc1cccc(-c2cc(F)ccc2N2Cc3ncc(-c4nnc(C(F)F)o4)cc3C2=O)c1 [Example 407] | % | 99 |

Report inhibition at 10 µM for O=C(C1CC1)N1CC[C@@H](N2Cc3ncc(-c4nnc(C(F)F)o4)cc3C2=O)[C@H](c2ccc(F)cc2)C1 [Example 498] please.
100

Report inhibition at 10 µM for O=C1c2cc(-c3nnc(C(F)F)o3)cnc2CN1Cc1cnn2ccccc12 [Example 458] please.
100

Report inhibition at 10 µM for O=C1c2cc(-c3nnc(C(F)F)o3)ccc2CN1Cc1ncccc1Cl [Example 143] please.
95

Report inhibition at 10 µM for O=C1c2cc(-c3nnc(C(F)F)o3)cnc2CN1[C@@H]1CCCC[C@H]1NC(=O)C1(C(F)(F)F)CCC1 [Example 219] please.
100

* * *

# targetDesc: HDAC6 enzyme (Homo sapiens)
# Construct: transducing full length HDAC6 gene into Sf-9 insect cells; GST; purchased SignalChem; host or cells: Sf-9 insect cells
# testName: HDAC6 enzyme inhibitory activity (HDAC-Glo I/II Assay kit)
# Assay type: biochemical
# runConditions: 10 μM; wells without enzyme = 100% inhibition; read-out: HDAC6 inhibitory rate (%) (10 μM)
propertyName: inhibition at 10 µM (%)
Answer in %, number only, no unit symbol.

Check out these entries, answers already filled in.
| compound | propertyName | recordedResult |
| --- | --- | --- |
| O=C1c2cc(-c3nnc(C(F)F)o3)cc(F)c2CN1[C@@H]1CCOC[C@H]1NC(=O)C(F)(F)C(F)(F)F [Example 200] | inhibition at 10 µM | 100 |
| O=C1c2cc(-c3nnc(C(F)F)o3)ccc2CN1[C@@H]1CCOC[C@@H]1NCC(F)(F)F [Example 415] | inhibition at 10 µM | 101 |
| O=C1c2cc(-c3nnc(C(F)F)o3)cc(F)c2CN1c1ccccc1-c1cnn(C(F)F)c1 [Example 390] | inhibition at 10 µM | 100 |
| O=C1c2cc(-c3nnc(C(F)F)o3)ccc2CN1c1ccccc1-c1cccc(OCC(F)(F)F)c1 [Example 315] | inhibition at 10 µM | 98 |

Report inhibition at 10 µM for O=C1c2cc(-c3nnc(C(F)F)o3)cnc2CN1[C@@H]1CCCC[C@@H]1NC(=O)C(F)(F)C(F)(F)F [Example 661] please.
99

Report inhibition at 10 µM for O=C1c2cc(-c3nnc(C(F)F)o3)ccc2CN1c1ccc(F)cc1-c1ccn[nH]1 [Example 467] please.
101

Report inhibition at 10 µM for O=C1c2cc(-c3nnc(C(F)F)o3)ccc2CN1[C@@H]1CCCC(F)(F)[C@H]1NC(=O)C(F)(F)C(F)(F)F [Example 513] please.
99

Report inhibition at 10 µM for COC(=O)N[C@H]1CCCC[C@H]1N1Cc2ccc(-c3nnc(C(F)F)o3)cc2C1=O [Example 262] please.
98

Report inhibition at 10 µM for O=C(N[C@@H]1CCCC[C@H]1N1Cc2ccc(-c3nnc(C(F)F)o3)cc2C1=O)C1CC1F (stereo partly drawn) [Example 70] please.
100

Report inhibition at 10 µM for O=C1c2cc(-c3nnc(C(F)F)o3)cnc2CN1[C@@H]1COCC[C@H]1Oc1cccc(F)c1 [Example 652] please.
100

Report inhibition at 10 µM for O=C(Cc1ccccc1)N[C@@H]1CCCC[C@H]1N1Cc2ncc(-c3nnc(C(F)F)o3)cc2C1=O [Example 466] please.
100

Report inhibition at 10 µM for CC(C)(C)OC(=O)N1CCC[C@@H]1CN1Cc2c(F)cc(-c3nnc(C(F)F)o3)cc2C1=O [Example 263] please.
99

Report inhibition at 10 µM for O=C1c2cc(-c3nnc(C(F)F)o3)ccc2CN1[C@@H]1CC(F)(F)CC[C@H]1NC(=O)C(F)(F)C(F)(F)F [Example 635] please.
99

Report inhibition at 10 µM for O=C1c2cc(-c3nnc(C(F)F)o3)cnc2CN1[C@@H]1CCOC[C@H]1NCC(F)(F)F [Example 400] please.
99

Report inhibition at 10 µM for CC(C)(C)OC(=O)NC1CC=C(c2cc(F)ccc2N2Cc3ccc(-c4nnc(C(F)F)o4)cc3C2=O)CC1 (stereo not drawn) [Example 520] please.
99

Report inhibition at 10 µM for O=C1c2cc(-c3nnc(C(F)F)o3)cnc2CN1Cc1ccc(F)cc1F [Example 348] please.
99

Report inhibition at 10 µM for O=C1c2cc(-c3nnc(C(F)F)o3)cnc2CN1c1ccc(F)cc1-c1cnn(C(F)F)c1 [Example 408] please.
99

Report inhibition at 10 µM for O=C1c2cc(-c3nnc(C(F)F)o3)cc(F)c2CN1C[C@H]1CC(F)(F)CN1S(=O)(=O)c1ccccc1 [Example 430] please.
101

Report inhibition at 10 µM for O=C1c2cc(-c3nnc(C(F)F)o3)cnc2CN1[C@@H]1CCCC[C@H]1NC(=O)C1(F)CCC1 [Example 218] please.
100

Report inhibition at 10 µM for Cn1nc(C(F)(F)F)cc1-c1c(Cl)cccc1N1Cc2ccc(-c3nnc(C(F)F)o3)cc2C1=O [Example 426] please.
99

Report inhibition at 10 µM for N#Cc1cccc(-c2cc(Cl)ccc2N2Cc3ccc(-c4nnc(C(F)F)o4)cc3C2=O)c1 [Example 248] please.
100

Report inhibition at 10 µM for O=C1c2cc(-c3nnc(C(F)F)o3)cnc2CN1[C@@H]1CCCC[C@H]1NC(=O)C1(C(F)(F)F)CC1 [Example 149] please.
102

* * *

# targetDesc: HDAC6 enzyme (Homo sapiens, UniProt Q9UBN7)
# Construct: transducing full length HDAC6 gene into Sf-9 insect cells; GST; purchased SignalChem; host or cells: Sf-9 insect cells
# Sequence (Q9UBN7 1-1215): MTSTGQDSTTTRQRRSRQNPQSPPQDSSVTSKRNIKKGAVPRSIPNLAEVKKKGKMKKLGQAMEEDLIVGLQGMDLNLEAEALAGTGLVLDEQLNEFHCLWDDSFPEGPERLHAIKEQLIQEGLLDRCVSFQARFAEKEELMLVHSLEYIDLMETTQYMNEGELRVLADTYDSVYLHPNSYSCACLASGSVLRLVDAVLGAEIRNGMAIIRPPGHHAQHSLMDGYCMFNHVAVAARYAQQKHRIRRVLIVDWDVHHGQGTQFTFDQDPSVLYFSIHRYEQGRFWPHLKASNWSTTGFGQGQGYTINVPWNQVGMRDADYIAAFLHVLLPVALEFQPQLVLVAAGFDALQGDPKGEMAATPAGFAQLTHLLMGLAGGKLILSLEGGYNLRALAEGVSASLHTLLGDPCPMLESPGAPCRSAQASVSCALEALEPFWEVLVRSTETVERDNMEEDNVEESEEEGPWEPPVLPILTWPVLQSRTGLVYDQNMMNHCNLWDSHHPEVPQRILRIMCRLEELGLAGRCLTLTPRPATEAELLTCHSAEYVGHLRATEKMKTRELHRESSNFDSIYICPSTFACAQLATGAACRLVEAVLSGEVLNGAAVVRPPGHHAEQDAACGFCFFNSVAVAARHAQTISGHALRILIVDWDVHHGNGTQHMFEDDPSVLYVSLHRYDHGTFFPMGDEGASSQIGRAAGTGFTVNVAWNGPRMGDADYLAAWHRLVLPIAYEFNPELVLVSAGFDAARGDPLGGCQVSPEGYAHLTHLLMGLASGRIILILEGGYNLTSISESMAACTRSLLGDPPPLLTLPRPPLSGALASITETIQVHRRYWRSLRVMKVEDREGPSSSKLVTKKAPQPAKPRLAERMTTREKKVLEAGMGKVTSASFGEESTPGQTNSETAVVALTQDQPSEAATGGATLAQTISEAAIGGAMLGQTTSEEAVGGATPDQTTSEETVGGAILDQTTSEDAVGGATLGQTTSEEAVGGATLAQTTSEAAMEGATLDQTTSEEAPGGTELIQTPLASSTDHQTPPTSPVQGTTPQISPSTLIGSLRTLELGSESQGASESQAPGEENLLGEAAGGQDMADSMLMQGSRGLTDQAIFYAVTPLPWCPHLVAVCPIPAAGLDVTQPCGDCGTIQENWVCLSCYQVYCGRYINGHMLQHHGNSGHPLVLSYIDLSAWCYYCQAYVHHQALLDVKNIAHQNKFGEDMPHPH
# testName: HDAC6 enzyme inhibitory activity (HDAC-Glo I/II Assay kit)
# Type: biochemical
# runConditions: 10 μM; wells without enzyme = 100% inhibition; read-out: HDAC6 inhibitory rate (%) (10 μM)
# Method: HDAC6 enzyme prepared by transducing full length HDAC6 gene into Sf-9 insect cells and purifying by GST affinity column were purchased from SignalChem. Using this enzyme, HDAC6 enzyme inhibitory activities of the compound of the present invention were evaluated. Enzymes were used after preserved at −70° C. HDAC6 enzyme inhibitory activity of the compound of the present invention was measured using HDAC-Glo™ I/II Assay kit (Promega) according to the following experimental method. […]
propertyName: inhibition at 10 µM (%)
Answer in %, number only, no unit symbol.

| compound | targetDesc | inhibition at 10 µM (%) |
| --- | --- | --- |
| O=C1c2cc(-c3nnc(C(F)F)o3)ccc2CN1c1ccccc1-c1ccc2c(c1)CCO2 | HDAC6 enzyme (Homo sapiens, UniProt Q9UBN7) | 100 |
| Cn1cc(Br)c(N2Cc3ccc(-c4nnc(C(F)F)o4)cc3C2=O)n1 | HDAC6 enzyme (Homo sapiens, UniProt Q9UBN7) | 95 |
| O=C1c2cc(-c3nnc(C(F)F)o3)cnc2CN1Cc1ccccc1OC(F)F | HDAC6 enzyme (Homo sapiens, UniProt Q9UBN7) | 102 |

Report inhibition at 10 µM for COc1ccccc1CN1Cc2ncc(-c3nnc(C(F)F)o3)cc2C1=O please.
98

Report inhibition at 10 µM for CCOc1cc(-c2ccccc2N2Cc3ccc(-c4nnc(C(F)F)o4)cc3C2=O)ccn1 please.
99

Report inhibition at 10 µM for O=C1c2cc(-c3nnc(C(F)F)o3)cnc2CN1c1ccccc1Br please.
98

Report inhibition at 10 µM for O=C(N[C@@H]1CCCC[C@H]1N1Cc2ncc(-c3nnc(C(F)F)o3)cc2C1=O)c1cccc(Cl)c1 please.
98

Report inhibition at 10 µM for O=C(N[C@@H]1CCOC[C@H]1N1Cc2c(F)cc(-c3nnc(C(F)F)o3)cc2C1=O)c1ccccc1Cl please.
100

Report inhibition at 10 µM for COc1ncc(Cl)cc1-c1ccccc1N1Cc2ccc(-c3nnc(C(F)F)o3)cc2C1=O please.
102

Data credit: patent US10435399B2
